ASSAYED TARGET: T1, Human MAGEB2 (Melanoma-associated antigen B2) (human, UniProt O15479 1-319)
T1 construct: Intracellular antigen detected by IHC in FFPE material: CHO cells transfected with human MAGEB2 (mCherry vector with Myc/DDK tags, or ORF without tags)
T1 sequence: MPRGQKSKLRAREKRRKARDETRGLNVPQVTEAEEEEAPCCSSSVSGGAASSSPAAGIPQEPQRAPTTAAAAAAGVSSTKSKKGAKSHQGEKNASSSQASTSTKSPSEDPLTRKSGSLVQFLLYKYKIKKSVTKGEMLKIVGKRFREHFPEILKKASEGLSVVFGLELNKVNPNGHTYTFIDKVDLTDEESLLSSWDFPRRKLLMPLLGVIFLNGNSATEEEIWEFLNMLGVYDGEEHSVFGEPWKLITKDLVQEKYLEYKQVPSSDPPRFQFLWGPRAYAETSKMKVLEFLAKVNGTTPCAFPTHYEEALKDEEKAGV
ASSAY OVERVIEW: IHC on FFPE NCI-H82 cells (endogenous MAGEB2)
Item-by-item account of IHC Intensity
PROPERTY MEASURED: IHC Intensity

• 1J15 (antibody, IgG1, V domains shown, Rabbit monoclonal IgG1; Tested as supernatant and as small batch purified antibody; also called MAGE-B2 (IJ15); anti-MAGEB2 antibody 1J15) VH: QSLEESGGGLVQPEGSLTLTCTAFGFTLNNYYICWVRQAPGKGLEWIACIDNANGRTYYASWAKGRFTISKTSSTTVTLQMTSLTAADTATYFCARSLSTPLWGPGTLVTVSS VL: DIVMTQTPASVEAAVGGTVTIKCQASQSISSYLSWYQQKPGQPPKLLIYRASTLASGVPSRFRGSGSGTQFTLTISDLECADAATYYCQSYDDSSDNNFFYGFGGGTEVVVR = 0
• 1C3 (antibody, V domains shown, also called MAGE-B2 (IC3); anti-MAGEB2 antibody 1C3) VH: QSLEESGGGLVQPEGSLTLTCTAFGVTLTNYYICWVRQAPGKGLEWVGCIDNANGRTYYASWAKGRFTISKTSSTTGTLQMTSLTAADTATYFCARSLATPLWGPGTLVTVSS VL: DIVMTQTPSSVEAAVGGTVTIKCQASQNISSYLAWYQQKPGQPPKLLIYRASTLASGVPSRFKGSGSGTQFTLTISDLECADAATYYCQSYDDSRSSNFFYAFGGGTEVVVKG = 1
• 1I14 (antibody, V domains shown, also called MAGE-B2 (1i14)) VH: QSVEESGGRLVTPGTPLTLTCTISGFSLSSYAMSWVRQAPGKGLEWIGSIGGGGSAVYASWAKGRFTISKTSTTVDLRITSPTTEDTAMYFCGRGFYSIDLWGPGTLVTVSS VL: DVVMTQTPASVEATVGGTVTIKCQSSQSVYDNNALAWYQQNAGQRPRLLIYGASTLASGVPSRFSASGSGTEFTLTISDLECADAATYYCQCTYYVSSYQNDFGGGTEVVVKG = 0

Where these numbers come from: patent US20250282887A1
